The measured values listed here are drawn from ChEMBL document CHEMBL3352485.

tested on: Rattus norvegicus; assay: Testosterone-suppressive activity in Crl:CD(SD) rat assessed as number of animal with plasma testosterone level below the limit of detection at 2 nmol/hr, sc through osmotic pumps measured after 6 days by RIA; assay type: functional
VALUE TYPE: Activity

INPUT: Would you kindly share the measured Activity for CNC(=N)NCCC[C@H](NC(=O)[C@H](CC(C)C)NC(=O)NNC(=O)[C@H](Cc1ccccc1)NC(=O)[C@@H](NC(=O)[C@H](CC(N)=O)NC(=O)[C@@H](Cc1ccncc1)NC(=O)[C@H](N)Cc1ccc(O)cc1)C(C)C)C(=O)N[C@@H](Cc1c[nH]c2ccccc12)C(N)=O ?
OUTPUT: 80%
